Test system: Notch-dependent expression of ATOH1 in LS174T cells
Test: ATOH1 expression induction in LS174T cell line by GSIs (RT-PCR)
Assay type: cell-based, human
Conditions: GSI treatment 72 h, fold-change vs 0.05% DMSO, read-out: IC50 for ATOH1 expression upregulation
Description: The human colon cancer cell line LS174T (CL-188; ATCC) was cultured without antibiotics in 1% FBS/Eagle’s Minimum Essential Medium (MEM; Thermo Fisher) ([Asakura et al., 2018]). […] Cells or tissue were lysed using RLT Lysis Buffer (Qiagen) and high purity RNA was prepared on the MagNA Pure instrument using MagNA Pure 96 Cellular RNA LV Kit (Roche). […] Normalized to Tbp, relative gene expression fold-change was quantified and compared between experimental and control conditions by ΔΔCt calculation. […]
pIC50: −log10 of the molar value.
VALUE TYPE: pIC50

A: C[C@H](NC(=O)Cc1cc(F)cc(F)c1)C(=O)N[C@H](C(=O)OC(C)(C)C)c1ccccc1
B: C[C@H](NC(=O)[C@@H](O)c1cc(F)cc(F)c1)C(=O)N[C@@H]1C(=O)N(C)c2ccccc2-c2ccccc21
Q) Lower pIC50: A or B ? Pick one; state its label.
A) A
(A: 5.85, B: 9.40)
